test system: Laminin 421/521; test: Phage display library screening (Example 2), NEB laminin-binding peptides; set-up: species or system human; details: Laminin 421/521, not 211 and 411; combined unique sequence count, Python/R script analysis
The following ranges of Count define the classes used here: range A (below 30), range B (30 to below 50), range C (50 or more)

Query: Given YTPRNQL (Laminin 421/521-binding peptide) , name the class its Count places it in.
Response: range C
